concentration at 8 h reference
test.protocol: Malabsorption Blood Test (MBT): serum levels of PA and HA after oral PA and THA test breakfast meal in healthy control subjects
Type: in vivo, human
condition.label: human, serum; four healthy control subjects, 30 mg/kg PA and either 60 or 90 mg/kg THA oral; FIG. 1 model; read-out: serum level by eight hours post dose

> print(dat)
                                   compound  observed.value
1  CCCCCCCCCCCCCCC(=O)O [PA, pentadecanoic acid]    ~10000 ng/mL

Let us examine a further case.
[Q] State its concentration at 8 h: CCCCCCCCCCCCCCCCC(=O)O [HA, heptadecanoic acid]
[A] ~10000 ng/mL
